Target: T1, Neuropilin-1 (Rattus norvegicus, UniProt Q9QWJ9)
T1 chain: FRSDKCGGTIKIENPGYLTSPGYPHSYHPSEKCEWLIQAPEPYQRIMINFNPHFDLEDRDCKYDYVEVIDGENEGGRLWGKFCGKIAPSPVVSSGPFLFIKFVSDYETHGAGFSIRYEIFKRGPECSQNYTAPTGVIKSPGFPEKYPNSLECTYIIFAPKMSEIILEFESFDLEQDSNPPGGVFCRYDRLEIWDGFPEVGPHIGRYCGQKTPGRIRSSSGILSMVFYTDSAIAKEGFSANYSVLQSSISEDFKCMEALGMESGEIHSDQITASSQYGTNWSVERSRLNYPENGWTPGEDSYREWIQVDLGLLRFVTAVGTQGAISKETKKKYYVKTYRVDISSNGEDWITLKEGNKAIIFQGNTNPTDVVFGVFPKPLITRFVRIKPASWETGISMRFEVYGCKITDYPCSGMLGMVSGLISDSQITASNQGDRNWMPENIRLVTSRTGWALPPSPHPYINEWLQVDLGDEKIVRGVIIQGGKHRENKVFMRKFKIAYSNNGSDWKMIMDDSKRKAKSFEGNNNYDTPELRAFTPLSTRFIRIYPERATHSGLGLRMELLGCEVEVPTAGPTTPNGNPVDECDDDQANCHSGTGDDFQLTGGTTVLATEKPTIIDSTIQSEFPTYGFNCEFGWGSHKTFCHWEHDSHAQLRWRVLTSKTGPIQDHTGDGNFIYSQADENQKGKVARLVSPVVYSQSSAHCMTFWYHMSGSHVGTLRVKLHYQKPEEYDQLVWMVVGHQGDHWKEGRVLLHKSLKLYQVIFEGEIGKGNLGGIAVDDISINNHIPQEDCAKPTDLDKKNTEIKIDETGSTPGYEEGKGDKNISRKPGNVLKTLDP
Experiment Notes: competition ELISA
Property Name: Kd (nM)
Field format: number, assumed nM, no unit text.

Prompt: I would be grateful if you could share the reported Kd for "CRGDK" .
Completion: 1400
